binding response of second antibody (nm) reference
test-target: T1, human GFRα3 expressed with a C-terminal myc-myc-hexahistidine tag (human, UniProt O60609 32-374, biotinylated (sites not given) in ELISA format 2 and in the Octet cross-competition; not in SPR)
T1 construct: also called hGFRα3-mmh; hGFRα3-mmH
T1 sequence (O60609 other isoform, or with tags, fused parts or gaps limits assumed): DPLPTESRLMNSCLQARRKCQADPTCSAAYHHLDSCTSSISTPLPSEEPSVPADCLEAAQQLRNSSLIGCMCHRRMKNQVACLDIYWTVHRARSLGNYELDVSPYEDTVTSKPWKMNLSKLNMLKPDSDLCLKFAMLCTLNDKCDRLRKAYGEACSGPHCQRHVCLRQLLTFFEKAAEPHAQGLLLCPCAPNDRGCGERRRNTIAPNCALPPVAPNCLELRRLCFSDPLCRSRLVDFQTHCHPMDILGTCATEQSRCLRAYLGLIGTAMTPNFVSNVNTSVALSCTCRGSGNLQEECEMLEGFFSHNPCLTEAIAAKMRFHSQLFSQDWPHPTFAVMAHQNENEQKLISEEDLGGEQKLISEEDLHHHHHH
assay: Octet cross-competition; biotin-hGFRα3-mmH pre-saturated with first antibody H4H2296S
Enter your answer as a number in nm; do not include the unit.

Examples from the recorded data:
>>> test_result("H4H2352S (antibody, human IgG4, V domains shown, human IgG4 Fc (H4H); also called H4H2352S-1) VH: EVQLVQSGAEVKKPGASVKVSCKASGYTFTNYGITWVRQAPGQGLEWMGWISAYNGNTGYAQKFQGRVTMTTDTSTSTAYMELRSLRSDDTAVYYCAREDYDFWRAFDIWGQGTMVTVSS VL: EIVLTQSPGTLSLSPGERATLSCRASQSVSSTYLAWLQQKPGQAPRLLIYGASSRATGIPDRFSGSGSGTDFTLTINRLEPEDFAVYYCQQYAYSPYTFGQGTKLEIK")
2.01
>>> test_result("H4H2292S (antibody, human IgG4, V domains shown, human IgG4 Fc (H4H)) VH: EVQLVESGGGVVQPGRSLRLSCAASGFTFSSYGMHWVRQAPGKGLEWVSFIWYDGSNKYYADSVKGRFTISRDNSKNTLYLQMNSLTAEDTAVYYCARRGILTGTTAFDIWGQGTMVTVSS VL: DIQMTQSPSSLSASVGDRVTITCRASQSISSYLNWYQQKPGKAPKLLIYAASSLQSGVPSRFSGSGSGTDFTLTIRSLIPEDFATYYCQQTYNTPFTFGPGTKVEIK")
1.87

(Q) binding response of second antibody (nm) for H4H2295S (antibody, human IgG4, V domains shown, human IgG4 Fc (H4H)) VH: EVQLVESGGGLVQAGGSLRLSCVASGFTFSSYAMSWVRQAPGKGLEWVSAISGSGGSTYSADSVKGRFTISRDNSKNTLYLQMNSLRAEDTAVYYCTKPSSYSSSNFYYGMDVWGQGTTVTVSS VL: DIQMTQSPSSVSASVGDRVTITCRASQGISSWLAWYQQKPGKAPKLLIYTASSLQSGVPSRFSGSGSRTDFTLTISSLQPEDFATYYCQQTNSLPLTFGPGTKVEIK ?
(A) 0.05
